Assay: RP, Waters ACQUITY UPLC BEH C18, 100 × 1 mm, 1.7 µm, 50 °C, 0.3 mL/min, estimated dead time 0.17 min; A: water + 0.1% formic acid + 20 mM ammonium formate; B: methanol + 0.1% formic acid + 20 mM ammonium formate; gradient (min/%B) 0/0 15/100 21/100 22/0 30/0
Settings: stereoisomer not certain
test.readout: LC retention time (min)
Kindly answer with a numeric value in min, unit omitted.

Answered examples (4):
Cc1nccc2c1[nH]c1ccccc12 [Harman] :: 9.01
Nc1ccc(F)cc1 [Picolinafen-Fluoroaniline] :: 2.59
C#CC1(OC(C)=O)CCC2C3CCC4=CC(=NO)CCC4C3CCC21CC (centres undefined) [Norgestimate] :: 16.4
COP(=S)(NC(C)C)Oc1ccccc1C(=O)OC(C)C (centres undefined) [Isofenphos-methyl] :: 15.5

**Query** Which measured LC retention time value corresponds to O=C(Nc1ccccc1)c1ccccc1I [Benodanil] ?
**Result** 12.7

**Query** Which measured LC retention time value corresponds to O=C(O)C1OC(Oc2ccc3c(=O)c(-c4ccc(O)cc4)coc3c2)C(O)C(O)C1O (centres undefined) [Daidzein_glucuronide] ?
**Result** 8.4

**Query** Which measured LC retention time value corresponds to COc1cc2c(c3oc4cccc(O)c4c(=O)c13)C1C=COC1O2 (centres undefined) [Sterigmatocystin] ?
**Result** 14.6

**Query** Which measured LC retention time value corresponds to CC1(C)C2CC=C(CO)C1C2 (single isomer, unassigned; (-)) [(-)-Myrtenol] ?
**Result** 11.5

**Query** Which measured LC retention time value corresponds to CN(C)S(=O)(=O)Nc1ccccc1 [DMSA] ?
**Result** 10.7
